Recorded pIC50, one value per entry.
target: Nuclear receptor ROR-gamma (Homo sapiens); experiment: Inverse agonist activity at human recombinant GST-tagged RORgammat ligand binding domain assessed as effect on receptor-biotin tagged TRAP220 co-activator peptide interaction using 10 nM GST-RORgamma LBD by FRET-based assay
Sequence (P51449 whole entry, the tested form may be a part): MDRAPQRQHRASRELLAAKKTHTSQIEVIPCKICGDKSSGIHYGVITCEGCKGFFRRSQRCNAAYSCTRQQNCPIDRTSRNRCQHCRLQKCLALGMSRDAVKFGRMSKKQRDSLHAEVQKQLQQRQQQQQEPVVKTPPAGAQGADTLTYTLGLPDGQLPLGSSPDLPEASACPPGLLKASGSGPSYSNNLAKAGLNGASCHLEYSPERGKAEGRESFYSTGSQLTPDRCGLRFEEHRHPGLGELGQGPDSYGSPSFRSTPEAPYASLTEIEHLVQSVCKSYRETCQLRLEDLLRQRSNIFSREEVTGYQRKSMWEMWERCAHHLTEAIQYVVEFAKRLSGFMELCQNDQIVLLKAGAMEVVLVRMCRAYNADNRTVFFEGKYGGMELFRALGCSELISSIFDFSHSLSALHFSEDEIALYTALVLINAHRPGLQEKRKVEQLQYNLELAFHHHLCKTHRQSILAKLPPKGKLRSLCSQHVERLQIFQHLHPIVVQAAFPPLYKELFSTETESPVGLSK
pIC50: −log10 of the molar value.
metric-name: pIC50

1) CC(C)Oc1cc(-c2cc(C(N)=O)ccc2Cl)ccc1N(C)C(=O)c1c(F)cccc1Cl
7.27
2) O=C(NCCO)c1ccc(Cl)c(-c2ccc3c(c2)CCCN3C(=O)c2c(F)cccc2Cl)c1
6.72
3) [2H]C([2H])([2H])N(C(=O)c1c(F)cccc1Cl)c1ncc(-c2cc(C(N)=O)ccc2Cl)cc1OCC(F)(F)F
7.05
4) NC(=O)c1ccc(F)c(-c2ccc3c(c2)CCCN3C(=O)c2c(F)cccc2Cl)c1
4.96
5) CCCOc1cc(-c2cc(C(N)=O)ccc2Cl)ccc1N(C)C(=O)c1c(F)cccc1Cl
7.96
6) CCCCOc1cc(-c2cc(C(N)=O)ccc2Cl)ccc1N(C)C(=O)c1c(F)cccc1Cl
7.66
7) CCNC(=O)c1ccc(Cl)c(-c2ccc3c(c2)CCCN3C(=O)c2c(F)cccc2Cl)c1
6.48
8) COc1ccc(C(N)=O)cc1-c1ccc2c(c1)CCCN2C(=O)c1c(F)cccc1Cl
6.00
9) NC(=O)c1ccc(Cl)c(-c2ccc3c(c2)CCCN3C(=O)c2c(F)cccc2Cl)c1
6.66
